Tested on: MV-4-11 cells
Experiment: Inhibition of MV-4-11 cell proliferation (MTS, 7 days)
Assay type: cell-based
Conditions: Homo sapiens, MV4-11, 168 h, 7 days, MTS, Table 3, read-out: MV-4-11 Cells Inhibition Activity IC50
outcomeMeasure: IC50

{"compound": "O=C1CCC(N2C(=O)c3cccc(NCc4cnc(-c5ccc(OC(F)(F)F)cc5)s4)c3C2=O)C(=O)N1 (stereo not drawn) [Example 35]", "IC50": "< 1 µM"}
{"compound": "O=C1CCC(N2C(=O)c3cccc(NCc4cnc(C5CCN(Cc6ccc(F)cc6)CC5)o4)c3C2=O)C(=O)N1 (stereo not drawn) [Example 12]", "IC50": "< 1 µM"}
{"compound": "O=C1CCC(N2C(=O)c3cccc(NCc4cnc(-c5cccc(C(F)(F)F)c5)o4)c3C2=O)C(=O)N1 (stereo not drawn) [Example 58]", "IC50": "< 1 µM"}
{"compound": "O=C1CCC(N2C(=O)c3cccc(NCc4cnc(-c5cccc(F)c5)s4)c3C2=O)C(=O)N1 (stereo not drawn) [Example 28]", "IC50": "1 to 20 µM"}
{"compound": "COc1cccc(-c2ncc(CNc3cccc4c3C(=O)N(C3CCC(=O)NC3=O)C4=O)o2)c1 (stereo not drawn) [Example 17]", "IC50": "1 to 20 µM"}

Fill in: IC50 of O=C1CCC(N2C(=O)c3cccc(NCc4cnc(-c5ccc(OC6COC6)cc5)s4)c3C2=O)C(=O)N1 (stereo not drawn) [Example 102] is ___
1 to 20 µM

Fill in: IC50 of O=C1CCC(N2C(=O)c3cccc(NCc4cnc(-c5cc(Cl)ccc5Cl)o4)c3C2=O)C(=O)N1 (stereo not drawn) [Example 77] is ___
1 to 20 µM

Fill in: IC50 of O=C1CCC(N2C(=O)c3cccc(NCc4ncc(-c5ccccc5Cl)o4)c3C2=O)C(=O)N1 (stereo not drawn) [Example 66] is ___
< 1 µM

Fill in: IC50 of O=C1CCC(N2C(=O)c3cccc(NCc4cnc(-c5ccccc5C(F)(F)F)o4)c3C2=O)C(=O)N1 (stereo not drawn) [Example 59] is ___
1 to 20 µM

Fill in: IC50 of O=C1CCC(N2C(=O)c3cccc(NCc4ncc(-c5ccc(C(F)(F)F)cc5)o4)c3C2=O)C(=O)N1 (stereo not drawn) [Example 60] is ___
1 to 20 µM

Fill in: IC50 of O=C1CCC(N2C(=O)c3cccc(NCc4cnc(-c5ccc(Cl)cc5)o4)c3C2=O)C(=O)N1 (stereo not drawn) [Example 25] is ___
< 1 µM

* * *

Tested on: MV-4-11 cells
Assay: Inhibition of MV-4-11 cell proliferation (MTS, 7 days)
Assay type: cell-based
Conditions: Homo sapiens, MV4-11, 168 h, 7 days, MTS, Table 3, read-out: MV-4-11 Cells Inhibition Activity IC50
outcomeMeasure: IC50

See these solved cases before continuing.
{"molecule": "[2H]c1c([2H])c([2H])c(-c2ncc(CNc3cccc4c3C(=O)N(C3CCC(=O)NC3=O)C4=O)s2)c([2H])c1[2H] (stereo not drawn) [Example 46]", "endpointResult": "1000 to 20000 nM"}
{"molecule": "N#Cc1ccc(C(=O)N2CCC(c3ncc(CNc4cccc5c4C(=O)N(C4CCC(=O)NC4=O)C5=O)o3)CC2)c(F)c1 (stereo not drawn) [Example 6]", "endpointResult": "1000 to 20000 nM"}
{"molecule": "O=C1CCC(N2C(=O)c3cccc(NCc4cnc(-c5ccccc5)o4)c3C2=O)C(=O)N1 (stereo not drawn) [Example 22]", "endpointResult": "< 1000 nM"}

Fill in: IC50 of CC1(C(=O)N2CCC(c3ncc(CNc4cccc5c4C(=O)N(C4CCC(=O)NC4=O)C5=O)o3)CC2)CCCCC1 (stereo not drawn) [Example 10] is ___
1000 to 20000 nM

Fill in: IC50 of O=C1CCC(N2C(=O)c3cccc(NCc4cnc(-c5ccccc5Cl)o4)c3C2=O)C(=O)N1 (stereo not drawn) [Example 27] is ___
< 1000 nM

Fill in: IC50 of C[C@@H]1CN(Cc2ncc(CNc3cccc4c3C(=O)N(C3CCC(=O)NC3=O)C4=O)o2)C[C@H](C)O1 (stereo partly drawn) [Example 79] is ___
< 1000 nM

Fill in: IC50 of O=C1CCC(N2C(=O)c3cccc(NCc4cnc(CN5CCOCC5)o4)c3C2=O)C(=O)N1 (stereo not drawn) [Example 82] is ___
< 1000 nM

Fill in: IC50 of O=C1CCC(N2C(=O)c3cccc(NCc4cnc(-c5cccc(Cl)c5)o4)c3C2=O)C(=O)N1 (stereo not drawn) [Example 63] is ___
< 1000 nM

Fill in: IC50 of O=C1CCC(N2C(=O)c3cccc(NCc4ncc(-c5ccc(F)cc5)o4)c3C2=O)C(=O)N1 (stereo not drawn) [Example 72] is ___
< 1000 nM
